# Tested on: Wickerhamomyces anomalus
# experiment.summary: Antimicrobial susceptibility of Pichia anomala from nosocomial fungemia patient assessed as percent susceptible isolates at 0.25 ug/ml by CLSI method
# Type: functional
quantity.name: Cumulative percent of isolates inhibited (%)
Number in %, nothing else.

(Q) Provide the documented Cumulative percent of isolates inhibited with Wickerhamomyces anomalus as the system for CC[C@H](C)C[C@H](C)CCCCCCCCC(=O)N[C@H]1C[C@@H](O)[C@@H](NCCN)NC(=O)[C@@H]2[C@@H](O)CCN2C(=O)[C@H]([C@H](O)CCN)NC(=O)[C@H]([C@H](O)[C@@H](O)c2ccc(O)cc2)NC(=O)[C@@H]2C[C@@H](O)CN2C(=O)[C@H]([C@@H](C)O)NC1=O [CASPOFUNGIN]
(A) 100

(Q) Provide the documented Cumulative percent of isolates inhibited with Wickerhamomyces anomalus as the system for C[C@@H](c1ncncc1F)[C@](O)(Cn1cncn1)c1ccc(F)cc1F [VORICONAZOLE]
(A) 96.5

(Q) Provide the documented Cumulative percent of isolates inhibited with Wickerhamomyces anomalus as the system for C[C@@H]1[C@H](O)[C@@H](C)/C=C/C=C/C=C/C=C/C=C/C=C/C=C/[C@H](O[C@@H]2O[C@H](C)[C@@H](O)[C@H](N)[C@@H]2O)C[C@@H]2O[C@](O)(C[C@@H](O)C[C@@H](O)[C@H](O)CC[C@@H](O)C[C@@H](O)CC(=O)O[C@H]1C)C[C@H](O)[C@H]2C(=O)O [AMPHOTERICIN B]
(A) 36

Turning now to a further record.
(Q) Provide the documented Cumulative percent of isolates inhibited with Wickerhamomyces anomalus as the system for CCC(C)n1ncn(-c2ccc(N3CCN(c4ccc(OCC5COC(Cn6cncn6)(c6ccc(Cl)cc6Cl)O5)cc4)CC3)cc2)c1=O (centres undefined) [ITRACONAZOLE]
(A) 74.1

---

# System: Wickerhamomyces anomalus
# experiment.summary: Antimicrobial susceptibility of Pichia anomala from nosocomial fungemia patient assessed as percent susceptible isolates at 0.12 ug/ml by CLSI method
# Format: functional
Activity below 40% gives NO; Activity at or above it gives YES.

Worked examples, 2 compounds total:
(Q) Say whether OC(Cn1cncn1)(Cn1cncn1)c1ccc(F)cc1F shows Activity of 40% or more.
(A) NO

(Q) Say whether CCC(C)n1ncn(-c2ccc(N3CCN(c4ccc(OCC5COC(Cn6cncn6)(c6ccc(Cl)cc6Cl)O5)cc4)CC3)cc2)c1=O (stereo not given) shows Activity of 40% or more.
(A) NO

Further cases:
(Q) Say whether C[C@@H]1[C@H](O)[C@@H](C)/C=C/C=C/C=C/C=C/C=C/C=C/C=C/[C@H](O[C@@H]2O[C@H](C)[C@@H](O)[C@H](N)[C@@H]2O)C[C@@H]2O[C@](O)(C[C@@H](O)C[C@@H](O)[C@H](O)CC[C@@H](O)C[C@@H](O)CC(=O)O[C@H]1C)C[C@H](O)[C@H]2C(=O)O shows Activity of 40% or more.
(A) NO

(Q) Say whether CC[C@H](C)C[C@H](C)CCCCCCCCC(=O)N[C@H]1C[C@@H](O)[C@@H](NCCN)NC(=O)[C@@H]2[C@@H](O)CCN2C(=O)[C@H]([C@H](O)CCN)NC(=O)[C@H]([C@H](O)[C@@H](O)c2ccc(O)cc2)NC(=O)[C@@H]2C[C@@H](O)CN2C(=O)[C@H]([C@@H](C)O)NC1=O shows Activity of 40% or more.
(A) YES

---

# System: Wickerhamomyces anomalus
# experiment.summary: Antimicrobial susceptibility of Pichia anomala from nosocomial fungemia patient assessed as percent susceptible isolates at 0.06 ug/ml by CLSI method
# Format: functional
Measured Cumulative percent of isolates inhibited accompanies every entry in the list below.
Number in %, nothing else.

(Q) What measured Cumulative percent of isolates inhibited goes with C[C@@H]1[C@H](O)[C@@H](C)/C=C/C=C/C=C/C=C/C=C/C=C/C=C/[C@H](O[C@@H]2O[C@H](C)[C@@H](O)[C@H](N)[C@@H]2O)C[C@@H]2O[C@](O)(C[C@@H](O)C[C@@H](O)[C@H](O)CC[C@@H](O)C[C@@H](O)CC(=O)O[C@H]1C)C[C@H](O)[C@H]2C(=O)O [AMPHOTERICIN B] ?
(A) 0

(Q) What measured Cumulative percent of isolates inhibited goes with CC[C@H](C)C[C@H](C)CCCCCCCCC(=O)N[C@H]1C[C@@H](O)[C@@H](NCCN)NC(=O)[C@@H]2[C@@H](O)CCN2C(=O)[C@H]([C@H](O)CCN)NC(=O)[C@H]([C@H](O)[C@@H](O)c2ccc(O)cc2)NC(=O)[C@@H]2C[C@@H](O)CN2C(=O)[C@H]([C@@H](C)O)NC1=O [CASPOFUNGIN] ?
(A) 17.2

(Q) What measured Cumulative percent of isolates inhibited goes with C[C@@H](c1ncncc1F)[C@](O)(Cn1cncn1)c1ccc(F)cc1F [VORICONAZOLE] ?
(A) 18.9

(Q) What measured Cumulative percent of isolates inhibited goes with CCC(C)n1ncn(-c2ccc(N3CCN(c4ccc(OCC5COC(Cn6cncn6)(c6ccc(Cl)cc6Cl)O5)cc4)CC3)cc2)c1=O (centres undefined) [ITRACONAZOLE] ?
(A) 12

Numbers sourced from ChEMBL document CHEMBL1147110.
